From: paper PMC3305808

Target: the molecule itself
Experiment: λ cI repressor fusion dimerization assay
Task for the reader: assign each of the following proteins its reported % repression of λpR-lacZ.
Answers without a unit are incomplete; give the number and then its unit.

Query :: Find the recorded % repression of λpR-lacZ belonging to λcIDB-AaTadZ K150R (natural protein) MLLLDQETITADSARTITVVSSRDDIQGEVAQTLRTRGLENIEIVKKDFFTSSDEISFSAEDTVGVIIDITHETNIKTIVERVFSVVPQNVWCCVIGDSDSISLSQKLLDEGILYFNSHTQLSQMVEKIILGVDIPRLRDTVKIAVLSCRGGIGASLISSHIANEIVSSKKIPVLLAQGPNGSQDLDLLFDKKLSGNVIEYAPNLDIFNGGLFELTPAATEKYNFIIYDQPIYNVKKDNFIGFLENYNNFVLVVERKIGSLRLAKQFLDECERIRSTSRKPIRTFVCISDNRLEAAKLMAKNDIETLIGSSIDAIIPYVKNTNTKTVLGINLGRDGKKEINSLMLKVIGAISRSSKPKEKQSLFSSFFTKLIKQ and report it.
Result :: 49%

Query :: What do you get for λcIDB-AaTadZ (TadZ of Aggregatibacter actinomycetemcomitans fused to the N-terminal DNA-binding domain of λ cI) (natural protein) MLLLDQETITADSARTITVVSSRDDIQGEVAQTLRTRGLENIEIVKKDFFTSSDEISFSAEDTVGVIIDITHETNIKTIVERVFSVVPQNVWCCVIGDSDSISLSQKLLDEGILYFNSHTQLSQMVEKIILGVDIPRLRDTVKIAVLSCKGGIGASLISSHIANEIVSSKKIPVLLAQGPNGSQDLDLLFDKKLSGNVIEYAPNLDIFNGGLFELTPAATEKYNFIIYDQPIYNVKKDNFIGFLENYNNFVLVVERKIGSLRLAKQFLDECERIRSTSRKPIRTFVCISDNRLEAAKLMAKNDIETLIGSSIDAIIPYVKNTNTKTVLGINLGRDGKKEINSLMLKVIGAISRSSKPKEKQSLFSSFFTKLIKQ ?
Result :: 60.1%

Query :: Do the same for λcIDB-AaTadZ S156A (natural protein) MLLLDQETITADSARTITVVSSRDDIQGEVAQTLRTRGLENIEIVKKDFFTSSDEISFSAEDTVGVIIDITHETNIKTIVERVFSVVPQNVWCCVIGDSDSISLSQKLLDEGILYFNSHTQLSQMVEKIILGVDIPRLRDTVKIAVLSCKGGIGAALISSHIANEIVSSKKIPVLLAQGPNGSQDLDLLFDKKLSGNVIEYAPNLDIFNGGLFELTPAATEKYNFIIYDQPIYNVKKDNFIGFLENYNNFVLVVERKIGSLRLAKQFLDECERIRSTSRKPIRTFVCISDNRLEAAKLMAKNDIETLIGSSIDAIIPYVKNTNTKTVLGINLGRDGKKEINSLMLKVIGAISRSSKPKEKQSLFSSFFTKLIKQ please
Result :: 57.6%
